tested on: BDF1 mice, B16 melanoma ip, median survival T/C; test: NCI In Vivo Anticancer Drug Screen. Data for tumor model B16 Melanoma (intraperitoneal) in B6D2F1 (BDF1) mice; conditions: endpoint: median survival time; dose: 100.0 mg/kg/injection; schedule: Q01DX009 (ip); vehicle: saline; higher = longer survival
Inconclusive results and toxic doses are left out. Square brackets hold non-standard residues; d marks the D form. Peptide text beside a SMILES is read from it. ξ: configuration not given here. ξE = NC(CCC(=O)O)C(=O)O
ENDPOINT: T/C

Give one value of T/C per listed compound.
1. NCC(=O)NCC(=O)NC(CCC(=O)O)C(=O)O (stereo not drawn) (H-Gly-Gly-[ξE]-OH)
2. CCOC(=O)N(Cc1ccccc1)C1CC1
3. CCCC1(CCC)CN(CO)C1=O
4. CCCCNCCN(CC)CC
5. COC1=C(O)C(C(O)CO)OC1=O (stereo unspecified)
6. O=C(O)c1ccc(S(=O)(=O)N(Cl)Cl)cc1
7. Cc1c(NCO)c(=O)n(-c2ccccc2)n1C

OUTPUT:
97 % of control
94 % of control
111 % of control
98 % of control
99 % of control
110 % of control
102 % of control

---

System: BDF1 mice, B16 melanoma ip, median survival T/C
Assay: NCI In Vivo Anticancer Drug Screen. Data for tumor model B16 Melanoma (intraperitoneal) in B6D2F1 (BDF1) mice
Conditions: endpoint: median survival time; dose: 200.0 mg/kg/injection; schedule: Q01DX009 (ip); vehicle: Klucel (hydroxypropylcellulose) (HPC); higher = longer survival
Protocol: The antitumor activity of compounds was measured in mice bearing transplantable tumors. Survival or tumor size were measured and the results are expressed as the measurement made in the treated group (T) divided by the measurement made in the vehicle treated control group (C). The tumor model used in this assay is B16 Melanoma (intraperitoneal) in B6D2F1 (BDF1) mice
Toxic doses and inconclusive results are not listed.
ENDPOINT: T/C

Consider the reported T/C for these compounds:
CCC(=O)c1ccccc1NC(C)=O
98 % of control
Cc1ccc(Cl)cc1NC(=O)c1ccc(Cl)cc1
101 % of control
O=C(NC(CSC(=O)OCc1ccccc1)C(=O)Oc1ccc([N+](=O)[O-])cc1)OCc1ccccc1 (configuration not stated)
100 % of control
COc1ccc(NC(=S)Nc2ccc(OC)cc2)cc1
96 % of control
C=CCc1ccccc1C
105 % of control

I need T/C for every entry listed below, if you could help.
1. NC(=O)c1ccccc1NC(=O)COc1ccc(Cl)cc1
2. Cc1ccc(NC(=S)N(C)C)cc1Cl
3. COc1ccc(NC(=O)Nc2ccc(C(C)C)cc2)cc1
4. COc1ccc(OC)c(/C=C/C(=O)c2ccc(Cl)cc2)c1
5. COc1cccc(CNc2cccc(Cl)c2Cl)c1OC
6. CCOC(=O)c1cncc(C(=O)OCC)c1
7. O=c1c2ccccc2[nH]c(=S)n1C1CCCCC1

OUTPUT:
106 % of control
88 % of control
94 % of control
92 % of control
95 % of control
113 % of control
90 % of control

Give one value of T/C per listed compound.
1. Cc1cc(=O)n2c3c(c(N)ccc13)OC2
2. c1ccc(Oc2ccccn2)cc1
3. C[Si](C)(C)Cc1ccccc1
4. COc1ccc2ccccc2c1C1NC(=O)c2ccccc2N1 (configuration not stated)

OUTPUT:
["92 % of control", "123 % of control", "109 % of control", "109 % of control"]

---

test system: BDF1 mice, B16 melanoma ip, median survival T/C; assay: NCI In Vivo Anticancer Drug Screen. Data for tumor model B16 Melanoma (intraperitoneal) in B6D2F1 (BDF1) mice; conditions: endpoint: median survival time; dose: 0.5 mg/kg/injection; schedule: Q01DX009 (ip); vehicle: Klucel (hydroxypropylcellulose) (HPC); higher = longer survival
Toxic doses and inconclusive results are not listed.
Exercise: for every item that follows, state its recorded T/C.

CC[C@H]1CN2CCc3cc(OC)c(OC)cc3[C@@H]2C[C@@H]1C[C@H]1NCCc2c1[nH]c1ccc(O)cc21
114 % of control

// for each compound below, give its T/C
1. Cc1c2cc3c(c1O)C(=O)CC(O3)c1ccc(O)c(c1)-c1ccc(O)c(c1)C(=O)OCC1OC(O2)C(O)C(O)C1O (stereo not given)
2. CC[C@](C)(O)C(=O)O[C@H]1C(=O)O[C@@H]2C[C@H]3C(C)=CC(=O)[C@@H](O)[C@]3(C)[C@H]3[C@@]4(O)OC[C@]32[C@@H]1[C@@H](C)[C@H]4O
3. CC(=O)Oc1ccc(OC(C)=O)c2c1C(=O)C=CC2=O
4. O=C1CC(c2ccc(OCN(CCCl)CCCl)cc2)CC(=O)C1CN(CCCl)CCCl (stereo not given)

OUTPUT:
1: 95 % of control; 2: 114 % of control; 3: 86 % of control; 4: 97 % of control

---

test system: BDF1 mice, B16 melanoma ip, median survival T/C; assay: NCI In Vivo Anticancer Drug Screen. Data for tumor model B16 Melanoma (intraperitoneal) in B6D2F1 (BDF1) mice; conditions: endpoint: median survival time; dose: 10.0 mg/kg/injection; schedule: Q01DX009 (ip); vehicle: saline
Toxic doses and inconclusive results are not listed. Rule for the calls: active = survival T/C of 150% or more; inactive = T/C below 125% in these data.
One label from this list, please: active, inactive

# count of solved cases: 3
CCC(C)C#N (centres undefined)
inactive
O=CC(NC(=O)N(CCCl)N=O)C(O)C(O)C(O)CO (centres undefined)
active
CS(=O)(=O)OCCCNCCCOS(C)(=O)=O
active

INPUT: Hello, I am checking results. What call was entered for c1ccc([C@H]2CN3CCSC3=N2)cc1 ?
OUTPUT: inactive

---

Record form. Attribute: T/C. Fill in for each entry.
tested on: BDF1 mice, B16 melanoma ip, median survival T/C; test: NCI In Vivo Anticancer Drug Screen. Data for tumor model B16 Melanoma (intraperitoneal) in B6D2F1 (BDF1) mice; conditions: endpoint: median survival time; dose: 0.39 mg/kg/injection; schedule: Q01DX009 (ip); vehicle: Klucel (hydroxypropylcellulose) (HPC); higher = longer survival
Inconclusive results and toxic doses are left out.

Guide cases for T/C, answers given:
O=C1C=C2C(=CCOC2O)O1 (stereo not given)
96 % of control
CN1C(=O)CCS(=O)(=O)C1c1ccc(Cl)cc1 (stereo not given)
100 % of control
Oc1ccccc1C=NCC[N-]CCN=Cc1ccccc1O.[Cu+]
97 % of control
OC(CCN1CCCCC1)(c1ccccc1)C1CC2C=CC1C2 (stereo not given)
100 % of control

INPUT: Lookup: T/C / BDF1 mice, B16 melanoma ip, median survival T/C / CCC(=O)NC1=C(N2CC2C)C(=O)C(NC(=O)CC)=C(N2CC2C)C1=O (stereo not given)
OUTPUT: 119 % of control

---

Record form. Attribute: T/C. Fill in for each entry.
system: BDF1 mice, B16 melanoma ip, median survival T/C; assay: NCI In Vivo Anticancer Drug Screen. Data for tumor model B16 Melanoma (intraperitoneal) in B6D2F1 (BDF1) mice; conditions: endpoint: median survival time; dose: 400.0 mg/kg/injection; schedule: Q01DX009 (ip); vehicle: Klucel (hydroxypropylcellulose) (HPC); higher = longer survival
Inconclusive results and toxic doses are left out. Peptide text beside a SMILES is read from it.

Cc1cccc(NC(=O)NC(C)C)c1C
93 % of control
CCCCCCCCCCCC(=O)CCC
90 % of control
C=CCNC(=S)Nc1cc(Cl)ccc1OC
93 % of control

// for each compound below, give its T/C
1. CC(C)CC(N)C(=O)NCC(=O)NC(Cc1ccccc1)C(=O)O (stereo not drawn) (H-Leu-Gly-Phe-OH; configuration not given here)
2. N#CCCN(CCC#N)c1ccc(C=O)cc1

OUTPUT:
89 % of control
102 % of control

---

system: BDF1 mice, B16 melanoma ip, median survival T/C; assay: NCI In Vivo Anticancer Drug Screen. Data for tumor model B16 Melanoma (intraperitoneal) in B6D2F1 (BDF1) mice; details: endpoint: median survival time; dose: 8.0 mg/kg/injection; schedule: Q01DX009 (ip); vehicle: saline; higher = longer survival
Toxic doses and inconclusive results are not listed.
Please provide measured T/C for the entries that follow.

Example entries and their recorded answers appear below.
C[n+]1ccc(Nc2ccc(NC(=O)c3ccc(Nc4cc[n+](C)c5ccc([N+](=O)[O-])cc45)cc3)cc2)cc1
102 % of control
C1CN1P1(N2CC2)=NP(N2CC2)(N2CC2)=NP(N2CC2)(N2CC2)=NP(N2CC2)(N2CC2)=N1
108 % of control
CC1OC(OCC2OC(Oc3c(-c4ccc(O)c(OS(=O)(=O)O)c4)oc4cc(O)cc(O)c4c3=O)C(O)C(O)C2O)C(O)C(O)C1O (stereo unspecified)
105 % of control

Quick one: give me T/C for each item below, same order please.
1. O=CC(NC(=O)N(CCCl)N=O)C(O)C(O)C(O)CO (stereo unspecified)
2. CCN(CC)CCCC(C)Nc1c2ccc(Cl)cc2nc2ccc(OC)cc12 (stereo unspecified)
3. O=C1OC(C(O)CO)C(O)=C1O (stereo unspecified)

OUTPUT:
91 % of control
100 % of control
110 % of control
